Attribution: ChEMBL document CHEMBL4261497

Molecular target: Ectonucleotide pyrophosphatase/phosphodiesterase family member 1 (Rattus norvegicus, UniProt Q924C3)
Sequence (Q924C3 whole entry): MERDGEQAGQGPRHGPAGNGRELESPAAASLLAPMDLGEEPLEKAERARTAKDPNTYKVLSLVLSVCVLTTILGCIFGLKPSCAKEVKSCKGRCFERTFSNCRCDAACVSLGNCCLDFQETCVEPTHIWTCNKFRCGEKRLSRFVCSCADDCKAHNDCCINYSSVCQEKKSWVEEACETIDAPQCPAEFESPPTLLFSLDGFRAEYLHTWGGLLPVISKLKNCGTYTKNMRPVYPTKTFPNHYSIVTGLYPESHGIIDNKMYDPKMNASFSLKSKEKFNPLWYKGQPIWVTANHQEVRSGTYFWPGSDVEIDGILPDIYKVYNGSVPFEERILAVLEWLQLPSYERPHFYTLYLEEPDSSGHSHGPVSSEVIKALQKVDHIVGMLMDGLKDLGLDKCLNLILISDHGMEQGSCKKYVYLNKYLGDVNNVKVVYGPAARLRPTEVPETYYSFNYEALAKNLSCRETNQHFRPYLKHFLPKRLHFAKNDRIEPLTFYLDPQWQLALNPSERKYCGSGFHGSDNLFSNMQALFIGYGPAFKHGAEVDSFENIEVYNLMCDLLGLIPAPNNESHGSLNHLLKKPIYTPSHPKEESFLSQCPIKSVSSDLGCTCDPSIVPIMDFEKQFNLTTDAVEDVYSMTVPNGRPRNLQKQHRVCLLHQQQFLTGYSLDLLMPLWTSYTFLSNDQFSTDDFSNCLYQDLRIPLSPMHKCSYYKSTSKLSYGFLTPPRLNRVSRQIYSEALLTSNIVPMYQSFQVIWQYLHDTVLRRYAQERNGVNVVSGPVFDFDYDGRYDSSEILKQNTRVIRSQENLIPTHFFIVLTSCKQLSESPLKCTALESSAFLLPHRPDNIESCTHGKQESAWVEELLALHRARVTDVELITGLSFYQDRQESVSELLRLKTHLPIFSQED
Experiment: Mixed-inhibition of Wistar rat NPP1 using p-Nph-5'-TMP as substrate measured after 5 mins by UPLC method
measure: Ki
Note to self: number, then unit, no commentary.

Inquiry: Need Ki, item Nc1ncnc2c1ncn2[C@@H]1O[C@H](COP(=O)(O)CP(=O)(O)O)[C@@H](O)[C@H]1O
Reply text: 9.6 µM

###

Molecular target: Ectonucleotide pyrophosphatase/phosphodiesterase family member 1 (Homo sapiens)
Experiment: Inhibition of recombinant human NPP1 expressed in COS7 cell membranes using p-Nph-5'-TMP as substrate pretreated for 10 mins followed by substrate addition and measured after 30 mins
pIC50: −log10 of the molar value.
measure: pIC50

Inquiry: Dear colleague, I am looking for the recorded pIC50 of the following compound: CCC(Oc1ccc(C)cc1)c1nnc(SCC(=O)Nc2nc3ccccc3s2)o1 (stereo unspecified)
Reply text: 5.26 to 5.72

###

Target: Ectonucleotide pyrophosphatase/phosphodiesterase family member 1 (Rattus norvegicus, UniProt Q924C3)
Assay: Inhibition of NPP1 in Wistar rat C6 cells using [gamma-32P]ATP as substrate pretreated for 30 mins followed by substrate addition and measured after 90 mins by TLC analysis
measure: IC50 (µM)
Give bare numbers, in µM.

Inquiry: // query IC50 value for entry Cc1nc(/N=N/c2ccc(S(=O)(=O)O)cc2S(=O)(=O)O)c(COP(=O)(O)O)c(C=O)c1O
Reply text: 12

Here is the next item to consider.
Inquiry: What does the record list as IC50 for Cc1ccc(C(=O)Nc2ccc(S(=O)(=O)O)c3cc(S(=O)(=O)O)cc(S(=O)(=O)O)c23)cc1NC(=O)c1cccc(NC(=O)Nc2cccc(C(=O)Nc3cc(C(=O)Nc4ccc(S(=O)(=O)O)c5cc(S(=O)(=O)O)cc(S(=O)(=O)O)c45)ccc3C)c2)c1 ?
Reply text: 72

###

Target: Ectonucleotide pyrophosphatase/phosphodiesterase family member 1 (Homo sapiens, UniProt P22413)
Sequence (P22413 whole entry): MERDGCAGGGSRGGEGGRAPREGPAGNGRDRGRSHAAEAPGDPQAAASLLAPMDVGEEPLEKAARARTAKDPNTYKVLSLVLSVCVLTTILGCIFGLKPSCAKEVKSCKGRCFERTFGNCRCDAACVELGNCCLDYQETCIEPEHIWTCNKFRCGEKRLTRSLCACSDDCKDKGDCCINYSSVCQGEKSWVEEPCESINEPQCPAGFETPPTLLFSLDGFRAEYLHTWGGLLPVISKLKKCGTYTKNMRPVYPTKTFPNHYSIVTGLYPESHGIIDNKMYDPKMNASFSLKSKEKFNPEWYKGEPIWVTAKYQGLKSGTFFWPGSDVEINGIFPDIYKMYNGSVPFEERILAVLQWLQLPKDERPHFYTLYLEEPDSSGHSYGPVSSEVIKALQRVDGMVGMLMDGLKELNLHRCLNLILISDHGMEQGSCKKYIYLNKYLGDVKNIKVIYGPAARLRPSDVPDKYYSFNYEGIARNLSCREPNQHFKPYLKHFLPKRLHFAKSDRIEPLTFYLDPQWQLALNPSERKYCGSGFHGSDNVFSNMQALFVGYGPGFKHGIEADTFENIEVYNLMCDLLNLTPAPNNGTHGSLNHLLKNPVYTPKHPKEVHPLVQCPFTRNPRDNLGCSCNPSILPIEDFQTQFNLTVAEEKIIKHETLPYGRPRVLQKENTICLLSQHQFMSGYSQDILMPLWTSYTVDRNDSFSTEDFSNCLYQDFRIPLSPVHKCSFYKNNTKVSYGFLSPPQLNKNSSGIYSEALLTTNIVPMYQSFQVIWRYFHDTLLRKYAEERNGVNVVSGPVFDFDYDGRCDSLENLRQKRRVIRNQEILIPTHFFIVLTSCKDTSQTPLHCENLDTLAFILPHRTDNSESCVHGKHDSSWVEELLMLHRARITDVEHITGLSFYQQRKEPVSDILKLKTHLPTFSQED
Experiment: Competitive-inhibition of recombinant human NPP1 expressed in HEK293 cell membranes using p-Nph-5'-TMP as substrate pretreated for 10 mins followed by substrate addition and measured after 60 mins by capillary electrophoresis method
measure: pKi
One number for each entry, as −log10 of the molar value.

Inquiry: What value of pKi has been recorded for this entry: Nc1ncnc2c1ncn2[C@@H]1O[C@H](COP(=O)(O)OP(=O)(O)OP(=O)(O)O)[C@@H](OC(=O)c2ccc(C(=O)c3ccccc3)cc2)[C@H]1O
Reply text: 5.53

###

Target: Ectonucleotide pyrophosphatase/phosphodiesterase family member 1 (Homo sapiens, UniProt P22413)
Test: Noncompetitive-inhibition of recombinant human NPP1 expressed in HEK293 cell membranes using p-Nph-5'-TMP as substrate pretreated for 10 mins followed by substrate addition and measured after 60 mins by capillary electrophoresis method
measure: Ki (µM)
Answers are plain numbers, in µM.

Inquiry: Need Ki of Nc1ncnc2c1ncn2[C@@H](C=O)O[C@@H](C=O)COP(=O)(O)OP(=O)(O)O , thanks.
Reply text: 3.42

###

Target: Ectonucleotide pyrophosphatase/phosphodiesterase family member 1 (Homo sapiens, UniProt P22413)
Sequence (P22413 whole entry): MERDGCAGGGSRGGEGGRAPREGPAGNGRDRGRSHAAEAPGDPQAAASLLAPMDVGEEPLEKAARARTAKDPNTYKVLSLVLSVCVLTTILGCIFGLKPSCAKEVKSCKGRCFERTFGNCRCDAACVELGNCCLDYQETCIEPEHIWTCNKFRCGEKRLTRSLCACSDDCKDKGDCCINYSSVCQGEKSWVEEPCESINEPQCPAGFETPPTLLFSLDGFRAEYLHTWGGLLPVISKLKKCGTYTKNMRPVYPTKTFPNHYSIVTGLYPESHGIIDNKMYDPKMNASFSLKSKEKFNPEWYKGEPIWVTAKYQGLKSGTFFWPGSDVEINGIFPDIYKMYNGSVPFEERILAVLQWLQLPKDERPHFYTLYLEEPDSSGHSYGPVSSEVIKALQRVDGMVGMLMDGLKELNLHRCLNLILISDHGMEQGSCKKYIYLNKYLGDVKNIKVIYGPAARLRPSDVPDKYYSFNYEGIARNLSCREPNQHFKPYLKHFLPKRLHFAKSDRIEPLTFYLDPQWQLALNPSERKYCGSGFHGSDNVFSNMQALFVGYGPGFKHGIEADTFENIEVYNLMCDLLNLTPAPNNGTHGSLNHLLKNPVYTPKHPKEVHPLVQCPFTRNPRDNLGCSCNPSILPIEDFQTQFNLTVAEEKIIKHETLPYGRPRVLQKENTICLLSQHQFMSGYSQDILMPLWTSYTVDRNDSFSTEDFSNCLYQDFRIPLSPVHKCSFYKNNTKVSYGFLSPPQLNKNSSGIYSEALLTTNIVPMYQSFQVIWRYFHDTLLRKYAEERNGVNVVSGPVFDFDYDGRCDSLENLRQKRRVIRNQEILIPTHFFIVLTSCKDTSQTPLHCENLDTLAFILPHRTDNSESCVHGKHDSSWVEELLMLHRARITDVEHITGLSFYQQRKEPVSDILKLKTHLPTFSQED
Experiment: Uncompetitive-inhibition of recombinant human N-terminal His-tagged soluble NPP1 (Val191 to Leu591 residues) expressed in mouse NSO cells using ATP as substrate after 30 mins by capillary electrophoresis method
measure: Ki (µM)
Answers are plain numbers, in µM.

Inquiry: Need Ki of Nc1ncnc2c1ncn2[C@@H](C=O)O[C@@H](C=O)COP(=O)(O)OP(=O)(O)OP(=O)(O)O , thanks.
Reply text: 6.96
